Each recorded value in this set is attributed to patent US10494364B2.

Here we list compounds with their recorded IC50 when tested on UniProt P43235.
Sequence (P43235 115-329): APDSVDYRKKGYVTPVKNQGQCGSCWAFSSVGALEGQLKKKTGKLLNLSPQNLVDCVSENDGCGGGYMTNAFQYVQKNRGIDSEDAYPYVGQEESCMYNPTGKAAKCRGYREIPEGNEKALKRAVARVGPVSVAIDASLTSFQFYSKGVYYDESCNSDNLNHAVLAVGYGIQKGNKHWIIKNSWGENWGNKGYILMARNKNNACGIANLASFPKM
quantity_measured: IC50 (nM)

N#CC1(NC(=O)C2(NC(=O)c3cc4ccc(-c5csc(-n6cncn6)n5)cc4o3)CCC(F)(F)CC2)CC1 [Example 57] = 1.3
N#CC1(NC(=O)C2(NC(=O)c3cc4ccc(-c5ccc(-n6cn[nH]c6=O)cc5)cc4o3)CCC(F)(F)CC2)CC1 [Example 85] = 1.26
N#CC1(NC(=O)C2(NC(=O)c3cc4ccc(-c5csc(N6CCCC6=O)n5)cc4o3)CCCCC2)CC1 [Example 63] = 1.6
N#CC1(NC(=O)C2(NC(=O)c3cc4ccc(-c5ccc(-n6cncn6)c(OC(F)F)c5)cc4o3)CCC(F)(F)CC2)CC1 [Example 53] = 1.4

---

Assay: Pharmacokinetic test in SD rats (iv and oral gavage), plasma by LC/MS/MS
Assay type: in vivo
Conditions: rat, male SD rats, iv 1 mg/kg, read-out: T1/2 h (converted)
quantity_measured: half-life (h)

(A) Cc1cc(-c2ccc3cc(C(=O)NC4(C(=O)NC5(C#N)CC5)CCC(F)(F)CC4)oc3c2)ccc1-n1cncn1
(B) N#CC1(NC(=O)C2(NC(=O)c3cc4ccc(-c5ccc(-n6ccnn6)cc5)cc4o3)CCC(F)(F)CC2)CC1
Would you kindly point out which of A and B has the smaller half-life figure? Your answer should be the label attached to the chosen record.
B
(B: 4.72 h, A: 7.1 h)

---

Experiment: Pharmacokinetic test in SD rats (iv and oral gavage), plasma by LC/MS/MS
Type: in vivo
Conditions: rat, male SD rats, po 5 mg/kg, read-out: AUClast h * ng/ml
quantity_measured: AUC(0-t) (ng·h/mL)

Illustrative cases are given below, each with its answer.
CCOc1cc(-c2ccc3cc(C(=O)NC4(C(=O)NC5(C#N)CC5)CCC(F)(F)CC4)oc3c2)ccc1-n1cncn1 [Example 54] = 21900
N#CC1(NC(=O)C2(NC(=O)c3cc4ccc(-c5ccc(-n6cncn6)cc5)cc4o3)CCC(F)(F)CC2)CC1 [Example 12] = 25100
N#CC1(NC(=O)C2(NC(=O)c3cc4ccc(-c5ccc(-n6ccnn6)cc5)cc4o3)CCC(F)(F)CC2)CC1 [Example 18] = 18600

(I) Cc1cc(-c2ccc3cc(C(=O)NC4(C(=O)NC5(C#N)CC5)CCC(F)(F)CC4)oc3c2)ccc1-n1cncn1 [Example 43]
(II) N#CC1(NC(=O)C2(NC(=O)c3cc4ccc(-c5ccc(-n6cncn6)c(OC(F)F)c5)cc4o3)CCC(F)(F)CC2)CC1 [Example 53]
Parameter check: reported AUC(0-t) is higher for which label, I or II ? Your answer should be the label attached to the chosen record.
II
(II: 21100 ng·h/mL, I: 14300 ng·h/mL)

---

Measured pIC50 accompanies every entry in the list below.
Biological target: UniProtKB P07711
Sequence (P07711 114-333): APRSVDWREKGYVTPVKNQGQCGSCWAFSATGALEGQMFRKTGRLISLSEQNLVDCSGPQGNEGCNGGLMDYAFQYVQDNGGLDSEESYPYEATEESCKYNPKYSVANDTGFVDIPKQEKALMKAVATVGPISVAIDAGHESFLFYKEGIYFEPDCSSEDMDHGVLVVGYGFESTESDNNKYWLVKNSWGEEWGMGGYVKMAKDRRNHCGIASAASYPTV
pIC50: −log10 of the molar value.

Illustrative cases are given below, each with its answer.
CS(=O)(=O)c1cccc(-c2ccc3cc(C(=O)NC4(C(=O)NC5(C#N)CC5)CCCCC4)oc3c2)c1 = < 5.00
COc1cc(-c2ccc3cc(C(=O)NC4(C(=O)NC5(C#N)CC5)CCC(F)(F)CC4)oc3c2)ccc1S(C)(=O)=O = < 5.00
CCOc1cc(-c2ccc3cc(C(=O)NC4(C(=O)NC5(C#N)CC5)CCC(F)(F)CC4)oc3c2)ccc1-n1cncn1 = < 5.00

Tell me reported pIC50 for N#CC1(NC(=O)C2(NC(=O)c3cc4ccc(-c5ccc(C(O)C6(O)CC6)cc5)cc4o3)CCC(F)(F)CC2)CC1 (stereo not shown) , tested with UniProtKB P07711.
< 5.00

Tell me reported pIC50 for N#CC1(NC(=O)C2(NC(=O)c3cc4ccc(-c5csc(N6CCOC6=O)n5)cc4o3)CCCCC2)CC1 , tested with UniProtKB P07711.
< 5.00

Tell me reported pIC50 for N#CC1(NC(=O)C2(NC(=O)c3cc4ccc(-c5ccc(N6CCNC6=O)cc5)cc4o3)CCC(F)(F)CC2)CC1 , tested with UniProtKB P07711.
< 5.00

Tell me reported pIC50 for N#CC1(NC(=O)C2(NC(=O)c3cc4ccc(-c5ccc(C6CCS(=O)(=O)CC6)cc5)cc4o3)CCC(F)(F)CC2)CC1 , tested with UniProtKB P07711.
< 5.00
